Target: Peptidyl-prolyl cis-trans isomerase FKBP1A (Homo sapiens, UniProt P62942)
Sequence (P62942 whole entry): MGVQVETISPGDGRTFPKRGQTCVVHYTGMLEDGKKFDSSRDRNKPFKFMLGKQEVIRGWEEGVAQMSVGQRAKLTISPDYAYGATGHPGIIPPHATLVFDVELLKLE
Experiment: Inhibition of FKBP12-mediated calcineurin activation in PMA/ionomycin stimulated human Jurkat cells transfected with NFAT-Luc assessed as reduction in NFAT reporter activity at 1 uM pretreated for 30 mins prior to PMA/ionomycin activation measured after 6 hrs by luciferase reporter assay
Assay type: cell-based
Endpoint label: inhibition (INH)

Chemical smiles	Endpoint label	Value observed
CO[C@H]1C[C@@H](C)C/C(C)=C/[C@@H](C/C=C/c2ccnc3ccccc23)C(=O)C[C@H](O)[C@@H](C)[C@@H](/C(C)=C/[C@@H]2CC[C@@H](O)[C@H](OC)C2)OC(=O)[C@@H]2CCCCN2C(=O)C(=O)[C@]2(O)O[C@H]1[C@@H](OC)C[C@H]2C	inhibition (INH)	Active
CO[C@H]1C[C@@H](C)C/C(C)=C/[C@@H](C/C=C/c2ccnc3c(F)c(F)ccc23)C(=O)C[C@H](O)[C@@H](C)[C@@H](/C(C)=C/[C@@H]2CC[C@@H](O)[C@H](OC)C2)OC(=O)[C@@H]2CCCCN2C(=O)C(=O)[C@]2(O)O[C@H]1[C@@H](OC)C[C@H]2C	inhibition (INH)	Active
